Source: the RNAGym collection of RNA variant scans (doi:10.7554/elife.80360)

B1: Twister Ribozyme (parent)
chain: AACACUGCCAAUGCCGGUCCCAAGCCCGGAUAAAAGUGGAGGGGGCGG

Variants of: B1
Assay: self-cleavage, relative activity (ratio to wild type); higher = more cleavage; co-transcriptional
Provide the reported self-cleavage of each item.
Just the number.

Returns the measured self-cleavage for the input variant. Input: G17C C20U
0.0836

Returns the measured self-cleavage for the input variant. Input: A23G C46A
0.328

Returns the measured self-cleavage for the input variant. Input: A4G C27U
0.74

Returns the measured self-cleavage for the input variant. Input: C9U G28U
0.504

Returns the measured self-cleavage for the input variant. Input: C8A A33C
0.279

Returns the measured self-cleavage for the input variant. Input: A34C G44A
0.385

Returns the measured self-cleavage for the input variant. Input: G24A G41A
0.0508

Returns the measured self-cleavage for the input variant. Input: U18C G45A
0.48

Returns the measured self-cleavage for the input variant. Input: C27U G39U
0.168

Returns the measured self-cleavage for the input variant. Input: A2U C15A
0.194

Returns the measured self-cleavage for the input variant. Input: C14A A35G
0.718

Returns the measured self-cleavage for the input variant. Input: C5U G41C
0.137

Returns the measured self-cleavage for the input variant. Input: G36C G42C
0.189

Returns the measured self-cleavage for the input variant. Input: U12G C20U
0.725

Returns the measured self-cleavage for the input variant. Input: G38U A40G
0.101

Returns the measured self-cleavage for the input variant. Input: C14U C27U
0.896

Returns the measured self-cleavage for the input variant. Input: A2G G48U
0.255

Returns the measured self-cleavage for the input variant. Input: C8G A35U
0.566

Returns the measured self-cleavage for the input variant. Input: A4C A34C
0.0803

Returns the measured self-cleavage for the input variant. Input: C25G G45C
0.143

Returns the measured self-cleavage for the input variant. Input: A11G G48A
0.884

Returns the measured self-cleavage for the input variant. Input: G16U C26G
0.136

Returns the measured self-cleavage for the input variant. Input: C8U C21U
0.0732

Returns the measured self-cleavage for the input variant. Input: C5U G43C
0.126

Returns the measured self-cleavage for the input variant. Input: C5A C20A
0.0707

Returns the measured self-cleavage for the input variant. Input: C21A G36U
0.0686

Returns the measured self-cleavage for the input variant. Input: A2G G13A
0.131

Returns the measured self-cleavage for the input variant. Input: G7C A33G
0.064

Returns the measured self-cleavage for the input variant. Input: G24C A30U
0.0977

Returns the measured self-cleavage for the input variant. Input: C3G A30C
0.167

Returns the measured self-cleavage for the input variant. Input: U12A U18C
0.623
